- test target: MMP-14 (Homo sapiens, UniProt P50281)
- Construct: The catalytic domain enzyme was expressed in E. coli inclusion bodies, solubilized in urea; made in house
- method: MMP-14 inhibition (in vitro Ki)
- Format: biochemical
- experimental setup: Table 9; read-out: MMP-14 Ki (IC-50)
assay readout: Ki (µM)

The following compounds have reported results that may help.
>>> quantitative_result("CCCC#Cc1ccc(C2CCN(S(=O)(=O)C3(C(=O)NO)CCOCC3)CC2)nc1")
0.401
>>> quantitative_result("CCOCc1ccc(C2CCN(S(=O)(=O)C3(C(=O)NO)CCOCC3)CC2)nc1")
4.28
>>> quantitative_result("O=C(NO)C1(S(=O)(=O)N2CCC(c3ccc(CCC(F)(F)F)cn3)CC2)CCCC1")
1.13
>>> quantitative_result("CCCN(C(=O)CCCC1CCN(S(=O)(=O)C2(C(=O)NO)CCOCC2)CC1)c1ccccc1")
6.52

I. O=C(CCCCC1CCN(S(=O)(=O)C2(C(=O)NO)CCOCC2)CC1)N1CCc2ccccc2C1
II. COCc1ccc(C2CCN(S(=O)(=O)C3(C(=O)NO)CCOCC3)CC2)nc1
Dear colleague, could you let me know whether I or II has the lower recorded Ki? Thanks. // respond with label for picked entry II
